Values compiled from PubChem BioAssay (NCI).

system: CCRF-CEM leukemia; assay: NCI-60 one-dose screen, 48 h (100 = growth as untreated, 0 = no growth, -100 = all killed); conditions: 10 µM unless noted
About 83,000 compounds went through this panel and 20% of them were active in at least one assay; those are over-represented in the sample as a whole.
Returns True if the recorded growth is greater than or equal to 30%, and False otherwise.

Please tell me: is the compound COc1ccc(-c2c3c(cn2Cc2cccc(OC)c2)-c2oncc2CCC3)cc1 at or over 30% in terms of growth?
True

Please tell me: is the compound Cc1cc2nc(C(Cl)Cl)nc(-c3ccc(S(=O)(=O)N(C)C)cc3)n2n1 at or over 30% in terms of growth?
True

Please tell me: is the compound Cc1[nH]c(C(=O)Nc2ccc(C(=O)NCC3CCNCC3)cc2OC(C)C)c(Cl)c1Cl at or over 30% in terms of growth?
True

Please tell me: is the compound Cc1csc(/N=C(N)/N=C(\N)c2cccc(Br)c2)n1 at or over 30% in terms of growth?
True

Please tell me: is the compound O=c1nc(Nc2ccc([N+](=O)[O-])cc2O)sc2ccccc12 at or over 30% in terms of growth?
False

Please tell me: is the compound C#CCN(C)CCCOc1ccc(NCc2ccc(/C=C/C(=O)NO)cc2)cc1Cl at or over 30% in terms of growth?
False

Please tell me: is the compound O=S(=O)(NCCCNc1nccc(-c2[nH]c(-c3ccccc3)nc2-c2ccc(F)c(O)c2)n1)c1cccc2ccccc12 at or over 30% in terms of growth?
False

Please tell me: is the compound Fc1ccc2nc(-c3cnn4cccnc34)sc2c1 at or over 30% in terms of growth?
True

Please tell me: is the compound CCCc1[nH]c(-c2cc(N)ccc2Cl)c2c1C(=O)CCCC2 at or over 30% in terms of growth?
True

Please tell me: is the compound CC1=C(C)C(=O)C(Nc2cccc(C(F)(F)F)c2)=C(Br)C1=O at or over 30% in terms of growth?
False

* * *

tested on: UO-31 renal; assay: NCI-60 one-dose screen, 48 h (100 = growth as untreated, 0 = no growth, -100 = all killed); conditions: 10 µM unless noted
This is part of a sample that, as a whole, favours compounds with a hit. Of some 83,000 tested, about 20% had one in any assay.
Label key: YES means growth under 60%; NO means growth of 60% or more.

Dear reviewer, please state whether O=C(/C=C/c1ccccc1)c1cccc(O)c1 has growth strictly beneath 60%.
NO

Dear reviewer, please state whether O=C1C(SCc2ccccc2)=C(Cl)CN1c1ccc(Cl)cc1 has growth strictly beneath 60%.
YES

Dear reviewer, please state whether O=S(=O)(Oc1ccc(-c2cn3ccsc3n2)cc1)c1cccc(C(F)(F)F)c1 has growth strictly beneath 60%.
NO

Dear reviewer, please state whether N#C/C(=C\c1ccc(-c2ccc(Cl)c(Cl)c2)o1)C(=O)Nc1ncc(Cc2ccc(Cl)cc2)s1 has growth strictly beneath 60%.
YES

Dear reviewer, please state whether C#C[C@]1(O)CC[C@H]2[C@@H]3CC=C4c5sc(N6CCN(C)CC6)nc5CC[C@]4(C)[C@H]3CC[C@@]21C has growth strictly beneath 60%.
NO

Dear reviewer, please state whether CN1CCN(c2ccc(Nc3nc(NCCNS(=O)(=O)c4ccc(Cl)cc4)c4sccc4n3)cc2)CC1 has growth strictly beneath 60%.
NO

Dear reviewer, please state whether CC/C(=C(/c1ccc(Cl)cc1)c1ccc(OCCN)cc1)c1ccccc1 has growth strictly beneath 60%.
NO

Dear reviewer, please state whether N#C/C(=C\c1cccc2c1OCO2)C(=O)Nc1sc2c(c1C#N)CCCC2 has growth strictly beneath 60%.
NO

Dear reviewer, please state whether N#C/C(=C\c1ccc(-c2ccc(Cl)cc2)o1)C(=O)Nc1ncc(Cc2ccc(Br)cc2)s1 has growth strictly beneath 60%.
YES

Dear reviewer, please state whether CCN(CC)CCOc1ccc(C(=C(c2ccccc2)C2CCCC2)c2ccc(OCCN(CC)CC)cc2)cc1 has growth strictly beneath 60%.
NO

Dear reviewer, please state whether CN1CCN(c2ccc(Nc3nc(NCCNS(=O)(=O)c4ccccc4)c4sccc4n3)cc2)CC1 has growth strictly beneath 60%.
NO

Dear reviewer, please state whether COc1ccc(C(C)=C(c2ccc(OCCN3CCCCCC3)cc2)c2ccc(OCCN3CCCCCC3)cc2)cc1 has growth strictly beneath 60%.
YES

Dear reviewer, please state whether C[C@@H]1OCC2(CCN(c3cnc(C(=O)Nc4cc(F)cc5cccnc45)cn3)CC2)[C@@H]1N has growth strictly beneath 60%.
YES

Dear reviewer, please state whether COC(=O)CCSC1=C(C)C(=O)c2ccccc2C1=O has growth strictly beneath 60%.
NO

Dear reviewer, please state whether O=C(Nc1cc(C(F)(F)F)cc(C(F)(F)F)c1)Nc1ccc2oc(=O)ccc2c1 has growth strictly beneath 60%.
YES

Dear reviewer, please state whether O=C(Nc1ccccc1)Nc1nc2ccc([N+](=O)[O-])cc2[nH]1 has growth strictly beneath 60%.
YES

* * *

tested on: CCRF-CEM leukemia; assay: NCI-60 one-dose screen, 48 h; conditions: 10 µM unless noted
The panel holds about 83,000 compounds, 20% with a hit somewhere; the sample as a whole holds those more often. The source made the active and inactive calls. The calls were made as follows: active = growth percent below 10; inactive = the rest.
// allowed return values: y (active), n (inactive)

Entry CS(=O)(=O)c1ccc(/C(=N/N=C(N)N)c2ccc(Cl)cc2)cc1 : call = ?
n

Entry C/C(CC1(O)C(=O)Nc2ccccc21)=N\O (centres undefined) : call = ?
n

Entry O=C(Nc1ccc(Cl)c(C(F)(F)F)c1)Nc1ccc2oc(=O)ccc2c1 : call = ?
n

Entry Cc1ccc(-c2cc3nc(C(Cl)Cl)nc(-c4ccc(S(=O)(=O)N(C)C)cc4)n3n2)cc1 : call = ?
n

Entry CC(C)NC(=O)c1cc(-c2ccc(NC(=O)Nc3ccc(F)cc3)cc2)nc2cccnc12 : call = ?
n

Entry CN(C)c1cccc2c(S(=O)(=O)Nc3cccc(-c4csc(NC(=O)CCCCCN5CCN(CCO)CC5)n4)c3)cccc12 : call = ?
n

Entry CCCCCN1C(=O)/C(=c2\sc3n(c2=O)C2C(NN=3)N(CC)C(=O)N2CC)c2cccc(C)c21 (centres undefined) : call = ?
n

Entry COc1ccc(C(C)=C(c2ccc(OCCN(C)C)cc2)c2ccc(OCCN(C)C)cc2)cc1 : call = ?
y

Entry CN1CCN(CC#CCn2c3c(c4ccccc42)C[C@]2(C)[C@H]4CC=C5[C@@H]6CC(C)(C)CC[C@]6(C(=O)N6CCOCC6)CC[C@@]5(C)[C@]4(C)CC[C@H]2C3(C)C)CC1 : call = ?
n

Entry CSc1ccc(/C(=N/N=C(N)N)c2ccc(F)cc2)cc1 : call = ?
y

Entry Cn1cc(C2=C(c3coc4cc(Br)ccc34)C(=O)NC2=O)c2ccccc21 : call = ?
n

Entry CCCC/C(=C\c1ccc(O)c(O)c1)C(=O)NC(Cc1ccccc1)C(=O)C(=O)NCCc1ccc(OC)cc1 (centres undefined) : call = ?
n

Entry O=C(O)c1ccc(-n2c(=O)n(-c3cccc(C(F)(F)F)c3)c(=O)c3cc(-c4ccc(F)cc4F)ccc32)cc1 : call = ?
n

Entry O=C(CCCCCCNC(=O)C(O)(O)C(F)(F)F)Nc1ncc(-c2ccccc2)s1 : call = ?
n

Entry CC(=O)/C(N=Nc1ccc2oc(=O)ccc2c1)=C(\C)O : call = ?
n

Entry Cn1cc(-c2nn3cc(-c4ccncc4)nc3s2)c2cc(Br)ccc21 : call = ?
n

Entry CC1(C)CC[C@]2(C(=O)O)CC[C@]3(C)C(=CC[C@@H]4[C@@]5(C)CC[C@H](NOCCCN)C(C)(C)[C@@H]5CC[C@]43C)[C@@H]2C1 : call = ?
n

Entry Cc1ccc2c(n1)C(=O)C(Cl)=C(Nc1cccc(C(=O)OC(C)(C)C)c1)C2=O : call = ?
n

Entry CSc1ccc(/C(=N/N=C(N)N)c2ccc(Cl)cc2)cc1 : call = ?
n

* * *

system: HT29 colon; experiment: NCI-60 one-dose screen, 48 h; conditions: 10 µM unless noted
This is part of a sample that, as a whole, favours compounds with a hit. Of some 83,000 tested, about 20% had one in any assay. Calls of active or inactive are those of the source. Rule for the calls: active = growth percent below 10; inactive = the rest.
// allowed return values: Y for active, N for inactive

Entry C#C[C@]1(O)CC[C@H]2[C@@H]3CC=C4c5sc(Nc6ccc(C)cn6)nc5CC[C@]4(C)[C@H]3CC[C@@]21C : call = ?
Y

Entry Cc1[nH]c(C(=O)Nc2ccccc2OCc2cccc(C(=O)NCCN)c2)cc1Cl : call = ?
N

Entry CCCC[n+]1ccc(SCC(=O)n2ccc3ccccc32)c2ccccc21 : call = ?
N

Entry COc1cc(/C=C2/C(=O)Nc3ccc(Cl)cc32)ccc1OCc1ccc(Cl)cc1 : call = ?
N

Entry CC(C)C(/C=C/c1[nH]ncc1-c1cc(Cl)ccc1O)N1CCOCC1 (centres undefined) : call = ?
N

Entry Cc1ccc(/C=N/Nc2nc(Nc3ccccc3)nc(Nc3ccc(S(N)(=O)=O)cc3)n2)cc1 : call = ?
N

Entry C=C(C)[C@@H]1CC[C@]2(C(=O)N3CCN(C)CC3)CC[C@]3(C)[C@H](CC[C@@H]4[C@@]5(C)CC[C@H](OP(=O)(OCC)OCC)C(C)(C)[C@@H]5CC[C@]43C)[C@@H]12 : call = ?
N

Entry O=C(/C=C/C=C/c1csc(Br)n1)NO : call = ?
N

Entry CNC(=O)c1cc(-c2ccc(NC(=S)Nc3cccc(C(F)(F)F)c3)cc2)nc2cccnc12 : call = ?
N
